# PROTOCOL_SUMMARY: Hygroscopicity evaluation
# Type: physicochemical
# COND: relative humidity 75%, 4 W
PROPERTY_MEASURED: Water (%)

Example cases with answers are listed next.
In [3]: df
Out[3]:
                                   compound  property_measured  quantitative_readout
0  C[C@@H]1CN(C(=O)CC#N)CC=C1c1cc(NC(=O)C2CC2)nc2[nH]ccc12 [Example 4]              Water                  1.02
1  C[C@@H]1CN(C(=O)CC#N)CC=C1c1cc(NC(=O)C2CC2)nc2[nH]ccc12 [Example 1]              Water                  5.41

[1] C[C@@H]1CN(C(=O)CC#N)CC=C1c1cc(NC(=O)C2CC2)nc2[nH]ccc12 [Example 3]
[2] C[C@@H]1CN(C(=O)CC#N)CC=C1c1cc(NC(=O)C2CC2)nc2[nH]ccc12 [Example 2]
## Input Smaller Water value? Options are 1 and 2 Mark your answer with the label of the selected entry.
## Output 1
(1: 0.81%, 2: 3.93%)
